system under test: T1, EsCas13d, nuclease-dead (Eubacterium siraeum, UniProt B0MS50, R295A;H300A;R849A;H854A)
T1 sequence: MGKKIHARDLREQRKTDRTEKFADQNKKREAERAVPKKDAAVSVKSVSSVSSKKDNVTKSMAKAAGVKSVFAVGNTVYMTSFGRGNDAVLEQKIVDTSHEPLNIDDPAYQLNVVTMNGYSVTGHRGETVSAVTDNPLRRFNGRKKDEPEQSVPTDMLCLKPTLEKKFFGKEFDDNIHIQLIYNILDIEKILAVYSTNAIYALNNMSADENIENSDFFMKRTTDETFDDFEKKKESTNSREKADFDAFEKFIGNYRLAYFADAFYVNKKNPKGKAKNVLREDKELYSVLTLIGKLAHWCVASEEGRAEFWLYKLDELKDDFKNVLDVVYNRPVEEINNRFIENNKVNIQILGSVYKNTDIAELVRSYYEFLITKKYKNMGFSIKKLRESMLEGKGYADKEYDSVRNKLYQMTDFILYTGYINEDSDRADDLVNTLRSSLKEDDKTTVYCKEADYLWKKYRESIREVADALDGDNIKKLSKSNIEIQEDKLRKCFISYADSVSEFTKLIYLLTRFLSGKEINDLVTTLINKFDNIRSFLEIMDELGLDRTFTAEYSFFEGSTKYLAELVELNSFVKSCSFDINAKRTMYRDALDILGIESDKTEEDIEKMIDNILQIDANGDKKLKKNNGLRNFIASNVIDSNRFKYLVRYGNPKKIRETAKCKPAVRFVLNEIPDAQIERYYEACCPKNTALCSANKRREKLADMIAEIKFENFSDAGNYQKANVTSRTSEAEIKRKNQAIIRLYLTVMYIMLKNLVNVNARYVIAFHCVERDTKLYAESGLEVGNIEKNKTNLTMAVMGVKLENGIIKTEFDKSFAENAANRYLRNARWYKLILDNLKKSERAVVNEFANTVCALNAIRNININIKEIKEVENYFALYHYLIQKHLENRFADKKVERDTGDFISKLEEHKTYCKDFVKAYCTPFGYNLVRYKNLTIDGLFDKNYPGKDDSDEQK
assay comment: crRNA (strand 1, pre-loaded); Mg2+; 40 mM Tris-HCl pH 7.5, 150 mM NaCl, 6 mM MgCl2, 1 mM DTT, 0.1% Tween-20, 0.2 mg/ml BSA; 25 C; 10 min per concentration, then washed
measurement conditions: tags: His6-TwinStrep-SUMO cleaved; N-terminal SNAP kept (SNAP-Surface 488); label: 3' end held by stalled T7 RNA polymerase
pKd: −log10 of the molar value.
measurement label: pKd

For reference, reported pKd for target 2 MT 5'PFS CGA 3'PFS UCA (mixed) RNA 1: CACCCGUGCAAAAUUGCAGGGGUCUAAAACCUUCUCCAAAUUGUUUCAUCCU RNA 2: GGGAAUGGAUCCACAUCUACGAAUUCCGAAGGAUGAAACAAUUUGGAGAAGUCAAGAUCGGAAGAGCACACGU stands at ~7.59

For reference, reported pKd for target 1 MT 5'PFS AAC 3'PFS UCC (mixed) RNA 1: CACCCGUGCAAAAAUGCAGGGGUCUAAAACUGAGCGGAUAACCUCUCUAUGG RNA 2: GGGAAUGGAUCCACAUCUACGAAUUCAACCCAUAGAGAGGUUAUCCGCUCAUCCAGAUCGGAAGAGCACACGU stands at ~7.87

For reference, reported pKd for target 3 insC 3' of 12,insA 3' of 2 (mixed) RNA 1: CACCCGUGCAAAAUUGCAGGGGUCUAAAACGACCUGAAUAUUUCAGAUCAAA RNA 2: GGGAAUGGAUCCACAUCUACGAAUUCGUUUUUGAUCUGAACAUAUUCAGGUACUGCAGAUCGGAAGAGCACACGU stands at ~6.99

For reference, reported pKd for target 1 MT 5'PFS GGC 3'PFS CAA (mixed) RNA 1: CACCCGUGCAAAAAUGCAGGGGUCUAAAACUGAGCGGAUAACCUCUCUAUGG RNA 2: GGGAAUGGAUCCACAUCUACGAAUUCGGCCCAUAGAGAGGUUAUCCGCUCACAAAGAUCGGAAGAGCACACGU stands at ~7.47
